These measurements were taken from the supplement of paper PMC10567573.

B1: BRF1 (parent)
chain: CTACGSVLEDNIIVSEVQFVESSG

Variants of: B1
protocol.text: protein stability index of a GFP-peptide fusion (GPS, HEK-293T) (PSI 1-6); higher = more stable;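 further: lentivirally expressed fusions sorted by FACS into six bins by GFP to DsRed ratio, PSI derived from sequencing read proportions per bin multiplied by bin number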
test.context: c terminus: a fixed tail appended
Entries and their protein stability index values follow.

{"variant.label": "G5A", "protein stability index": 2.86}
{"variant.label": "V17A", "protein stability index": 4.27}
{"variant.label": "Q18N", "protein stability index": 2.77}
{"variant.label": "F19I", "protein stability index": 2.87}
{"variant.label": "S6A", "protein stability index": 2.73}
{"variant.label": "C1Y", "protein stability index": 3.18}
{"variant.label": "N11Y", "protein stability index": 2.06}
{"variant.label": "V14T", "protein stability index": 3.95}
{"variant.label": "S6V", "protein stability index": 2.22}
{"variant.label": "V7K", "protein stability index": 4.22}
{"variant.label": "G5Y", "protein stability index": 1.76}
{"variant.label": "V7Q", "protein stability index": 2.96}
{"variant.label": "G24K", "protein stability index": 3.25}
{"variant.label": "C4N", "protein stability index": 4.37}
{"variant.label": "S6G", "protein stability index": 3.35}
{"variant.label": "S23P", "protein stability index": 2.72}
{"variant.label": "A3M", "protein stability index": 2.87}
{"variant.label": "C4K", "protein stability index": 4.04}
{"variant.label": "C1Q", "protein stability index": 4.3}
{"variant.label": "A3T", "protein stability index": 3.07}
{"variant.label": "E21M", "protein stability index": 2.4}
{"variant.label": "V7E", "protein stability index": 4.17}
{"variant.label": "C4R", "protein stability index": 3.57}
{"variant.label": "Q18K", "protein stability index": 3.27}
{"variant.label": "I12P", "protein stability index": 3.55}
{"variant.label": "V14W", "protein stability index": 2.14}
{"variant.label": "E21H", "protein stability index": 2.88}
{"variant.label": "G5M", "protein stability index": 2.1}
{"variant.label": "S22N", "protein stability index": 3.07}
{"variant.label": "G5H", "protein stability index": 1.76}
{"variant.label": "D10N", "protein stability index": 2.55}
{"variant.label": "S15H", "protein stability index": 2.71}
{"variant.label": "S22V", "protein stability index": 2.75}
{"variant.label": "L8A", "protein stability index": 2.9}
{"variant.label": "C4G", "protein stability index": 3.74}
{"variant.label": "V7C", "protein stability index": 2.64}
{"variant.label": "I12Y", "protein stability index": 3.15}
{"variant.label": "A3H", "protein stability index": 2.56}
{"variant.label": "A3R", "protein stability index": 2.9}
{"variant.label": "G5N", "protein stability index": 3.24}
{"variant.label": "F19M", "protein stability index": 3.63}
{"variant.label": "T2N", "protein stability index": 3.02}
{"variant.label": "E9R", "protein stability index": 3.02}
{"variant.label": "S22Y", "protein stability index": 2.38}
{"variant.label": "C1S", "protein stability index": 4.13}
{"variant.label": "V20T", "protein stability index": 3.58}
{"variant.label": "D10K", "protein stability index": 3.43}
{"variant.label": "D10H", "protein stability index": 2.67}
{"variant.label": "L8T", "protein stability index": 4.19}
{"variant.label": "G5E", "protein stability index": 3.21}
{"variant.label": "C1F", "protein stability index": 2.63}
{"variant.label": "T2V", "protein stability index": 1.86}
{"variant.label": "Q18D", "protein stability index": 2.89}
{"variant.label": "E21A", "protein stability index": 2.58}
{"variant.label": "D10I", "protein stability index": 3.2}
{"variant.label": "V20Q", "protein stability index": 3.35}
{"variant.label": "C1V", "protein stability index": 2.2}
{"variant.label": "S22L", "protein stability index": 2.09}
{"variant.label": "E16C", "protein stability index": 3.61}
{"variant.label": "S15C", "protein stability index": 2.82}
{"variant.label": "S15Q", "protein stability index": 3.11}
{"variant.label": "V17M", "protein stability index": 2.37}
{"variant.label": "Q18P", "protein stability index": 3.1}
{"variant.label": "S23F", "protein stability index": 2.42}
{"variant.label": "S6I", "protein stability index": 1.27}
{"variant.label": "S15P", "protein stability index": 3.15}
{"variant.label": "L8I", "protein stability index": 3.44}
{"variant.label": "C1D", "protein stability index": 4.46}
{"variant.label": "V17H", "protein stability index": 4.4}
{"variant.label": "I12F", "protein stability index": 2.23}
{"variant.label": "V17Y", "protein stability index": 2.87}
{"variant.label": "G5K", "protein stability index": 3.33}
